Attribution: patent US11407796B2

# assay details: AF16 and AF16-NEM stability in human plasma
# Type: in vitro ADME
# test parameters: human plasma:KP pH 7.4 (1:1), 37° C., no DTT; read-out: in vitro half-life (t½) (converted)
Peptide text beside a SMILES is read from it.
quantity: half-life (min)
Return type: number; implicit unit min.

**Q:** Entry CC(C)C[C@H](NC(=O)CNC(=O)[C@@H](NC(=O)[C@H](CC(N)=O)NC(=O)[C@H](CC(N)=O)NC(=O)[C@H](CCC(=O)O)NC(=O)[C@@H]1CCCN1C(=O)[C@H](CC(N)=O)NC(=O)[C@H](CO)NC(=O)[C@H](CCCNC(=N)N)NC(=O)[C@@H](NC(=O)[C@H](CCCCN)NC(=O)[C@H](CO)NC(=O)[C@H](Cc1c[nH]cn1)NC(=O)[C@H](CS)NC(=O)[C@@H](N)C(C)C)[C@@H](C)O)C(C)C)C(=O)O [AF16, VCHSKTRSNPENNVGL] (H-VCHSKTRSNPENNVGL-OH; N-terminus and C-terminus assumed) : reported half-life = ?
**A:** 24

---

# assay details: AF16 stability and metabolite formation with Caco-2 cells
# Type: in vitro ADME
# test parameters: Caco-2, 50 μM, apical side of Caco-2 cells, with protease inhibitor cocktail (Bestatin, Diprotin A, Captopril); read-out: t½ of degradation with inhibitor cocktail
Peptide text beside a SMILES is read from it.
quantity: half-life (min)
Numeric only. Scale: min

**Q:** half-life lookup needed for CC(C)C[C@H](NC(=O)CNC(=O)[C@@H](NC(=O)[C@H](CC(N)=O)NC(=O)[C@H](CC(N)=O)NC(=O)[C@H](CCC(=O)O)NC(=O)[C@@H]1CCCN1C(=O)[C@H](CC(N)=O)NC(=O)[C@H](CO)NC(=O)[C@H](CCCNC(=N)N)NC(=O)[C@@H](NC(=O)[C@H](CCCCN)NC(=O)[C@H](CO)NC(=O)[C@H](Cc1c[nH]cn1)NC(=O)[C@H](CS)NC(=O)[C@@H](N)C(C)C)[C@@H](C)O)C(C)C)C(=O)O [AF16, VCHSKTRSNPENNVGL] (H-VCHSKTRSNPENNVGL-OH; N-terminus and C-terminus assumed) , thanks.
**A:** 57

---

# assay details: AF16 stability and metabolite formation with Caco-2 cells
# Assay type: in vitro ADME
# test parameters: Caco-2, 50 μM, apical side of Caco-2 cells, without inhibitor cocktail; read-out: t½ of degradation
Peptide text beside a SMILES is read from it.
quantity: half-life (min)
Expressed in min, but write only the number.

**Q:** Please give the measured half-life for this compound: CC(C)C[C@H](NC(=O)CNC(=O)[C@@H](NC(=O)[C@H](CC(N)=O)NC(=O)[C@H](CC(N)=O)NC(=O)[C@H](CCC(=O)O)NC(=O)[C@@H]1CCCN1C(=O)[C@H](CC(N)=O)NC(=O)[C@H](CO)NC(=O)[C@H](CCCNC(=N)N)NC(=O)[C@@H](NC(=O)[C@H](CCCCN)NC(=O)[C@H](CO)NC(=O)[C@H](Cc1c[nH]cn1)NC(=O)[C@H](CS)NC(=O)[C@@H](N)C(C)C)[C@@H](C)O)C(C)C)C(=O)O [AF16, VCHSKTRSNPENNVGL] (H-VCHSKTRSNPENNVGL-OH; N-terminus and C-terminus assumed)
**A:** 8
